Data origin, for the record: PubChem BioAssay

Target: Epidermal growth factor receptor (Homo sapiens)
Assay: compounds binding epidermal growth factor receptor – biochemical, small-molecule microarray, 635 nm fluorescence, primary screen (AID 1104);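 further: score merges 667 nm emission intensity with spot signal to noise over triplicate slides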
Conditions: EGFR binding, higher = more signal
measurement.name: composite z-score
Answer with a bare number; do not write a unit.

Use the examples below as a reference point.
molecule="O=C1C2C=CC(C(O)CCc3ccccc3)N(Nc3ccccc3)C2C(=O)N1c1ccccc1 (configuration not stated)" tgt="Epidermal growth factor receptor (Homo sapiens)" observed_result=-0.0133
molecule="O=C1OCCC/C=C\\[C@H]2OC34C=CCN(CCN5CCOCC5)C(=O)[C@H]3N(CCO)C(=O)[C@@H]4C12 (some centres not stated)" tgt="Epidermal growth factor receptor (Homo sapiens)" observed_result=-0.676

Incoming: Specify composite z-score for C=C(COC)/C(=C/C[C@H](OC(C)=O)c1ccccc1OCCO)c1cnc2ccccc2c1 and stop.
Outgoing: 0.486

Incoming: Specify composite z-score for CN(C)CCCC[C@@H]1NC(=O)[C@@H]2C[C@H](C(=O)NCCCCCN)[C@H](c3ccc(O)cc3)N2C1=O and stop.
Outgoing: -0.912

Incoming: Specify composite z-score for C=C[C@@H](C)[C@@H](OC(=O)Nc1ccc(OC)cc1)c1ccc(O)c2ccccc12 and stop.
Outgoing: 0.762

Incoming: Specify composite z-score for C[n+]1ccc2ccc(O)cc2c1 and stop.
Outgoing: 1.19

Incoming: Specify composite z-score for COCCOC(=O)N1C(=O)[C@@]2(c3ccccc31)[C@H](C(=O)N1CCCCCCC1)[C@H]1C(=O)O[C@H](c3ccccc3)[C@H](c3ccccc3)N1[C@@H]2c1ccccc1OCCO and stop.
Outgoing: 1

Incoming: Specify composite z-score for CC(C)[Si]1(C(C)C)O[C@@H](c2ccccc2)c2cc(-c3ccc(-c4ccc(Cl)c(Cl)c4)o3)nc(CCc3ccccc3)c21 and stop.
Outgoing: -0.844

Incoming: Specify composite z-score for C=C(CCCC)C(=O)CC[C@@H](OC(=O)c1ccccc1-c1ccccc1C(=O)O)c1ccc(CO)o1 and stop.
Outgoing: -0.183

Incoming: Specify composite z-score for CN(C)CCCCNC(=O)[C@@H]1C[C@@H]2C(=O)N[C@@H](CCCCN)C(=O)N2[C@@H]1c1cccc(OCCO)c1 and stop.
Outgoing: -1.22

Incoming: Specify composite z-score for C=CCC(OC(C)=O)[C@@H]1[C@@H](N(Cc2cc3ccccc3o2)C(=O)c2ccc(-c3ccccc3)cc2)c2cc(OCCCO)ccc2N1C(=O)Cc1ccc2ccccc2c1 (some centres not stated) and stop.
Outgoing: -0.227

Incoming: Specify composite z-score for COc1ccccc1CN1C(=O)c2ccccc2[C@](Cc2ccccc2I)(C(=O)NC2CC2)[C@@H]1c1ccc(CO)cc1 and stop.
Outgoing: 0.385

Incoming: Specify composite z-score for CCCNC(=O)[C@@]1(C)c2ccccc2C(=O)N(Cc2cc(C(F)(F)F)cc(C(F)(F)F)c2)[C@H]1c1ccc(CO)cc1 and stop.
Outgoing: -0.708

Incoming: Specify composite z-score for COc1ccc([Si](C)(C)[C@@H]2[C@@H](CCO)O[C@]3(C(=O)N(Cc4cccc(N(C=O)c5ccccc5)c4)c4ccccc43)[C@H]2C)cc1 and stop.
Outgoing: -0.222

Incoming: Specify composite z-score for CC(C)N1C(=O)c2ccccc2[C@](C)(C(=O)NC2CC2)[C@@H]1c1ccc(CO)cc1 and stop.
Outgoing: -0.415

Incoming: Specify composite z-score for O=C(NCC(F)(F)F)[C@@H]1c2ccccc2C(=O)N(Cc2ccccc2)[C@H]1c1ccc(CO)cc1 and stop.
Outgoing: -1.31

Incoming: Specify composite z-score for O=C1C2C=CC(C(O)C3CC=CCC3)N(n3cnnc3)C2C(=O)N1Cc1ccccc1 (configuration not stated) and stop.
Outgoing: -1.64

Incoming: Specify composite z-score for CC(C)CNC(=O)[C@@]1(C)c2ccccc2C(=O)N(C(C)C)[C@H]1c1ccc(CO)cc1 and stop.
Outgoing: -0.741

Incoming: Specify composite z-score for OCCCc1cc[n+](Cc2cccc(OC(F)(F)F)c2)cc1 and stop.
Outgoing: 0.0648

Incoming: Specify composite z-score for CCCC[C@@H]1C[C@H]1[C@@H](NC(=O)c1ccccc1)c1ccccc1 and stop.
Outgoing: -0.151

Incoming: Specify composite z-score for O=C1[C@H]2C=C(Br)[C@H](C[C@@H]2OCCOCCO)[C@@]12CO2 and stop.
Outgoing: 0.475

Incoming: Specify composite z-score for [N-]=[N+]=NCc1ccccc1C[C@]1(C(N)=O)N=C(c2ccc(OCCCO)cc2)O[C@H]1c1ccccc1N=[N+]=[N-] and stop.
Outgoing: -0.236

Incoming: Specify composite z-score for CC(=O)N1Cc2ccccc2C[C@@]2(N=C(c3ccc(OCCCO)cc3)O[C@H]2c2ccccc2)C1=O and stop.
Outgoing: 0.361
